Provenance of the data: paper PMC10397247

Target: T1, 4H2961-AA
T1 chain: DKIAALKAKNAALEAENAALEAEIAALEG
Test: two-hybrid library CCmax;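 also: natural log of median RNA to DNA barcode read ratio; higher means stronger binding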
Conditions: mean of both orientations
Endpoint Name: interaction score

Previously resolved entries follow.
[
  {
    "Binder": "DKIAALKAENAALEAKIAALEAKNAALKG [4H2728-AA]",
    "interaction score": -1.41
  },
  {
    "Binder": "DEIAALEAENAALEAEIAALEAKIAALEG [4H133-AA]",
    "interaction score": -1.33
  },
  {
    "Binder": "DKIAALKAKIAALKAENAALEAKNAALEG [4H2903-AA]",
    "interaction score": -1.88
  },
  {
    "Binder": "DENAALKAKIAALKAKNAALKAEIAALEG [4H1913-AA]",
    "interaction score": -1.61
  },
  {
    "Binder": "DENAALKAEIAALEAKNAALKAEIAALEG [4H1593-AA]",
    "interaction score": -1.89
  },
  {
    "Binder": "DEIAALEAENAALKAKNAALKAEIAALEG [4H249-AA]",
    "interaction score": 1.36
  }
]

a. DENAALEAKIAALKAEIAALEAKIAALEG [4H1349-AA]
b. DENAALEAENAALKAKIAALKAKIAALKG [4H1262-AA]
Exercise: Returns: the label, a or b , whose recorded interaction score is the lower number. Let me know the label of the one you choose.
Key: a
(a: -2.4, b: -0.013)

a. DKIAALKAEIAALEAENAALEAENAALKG [4H2580-AA]
b. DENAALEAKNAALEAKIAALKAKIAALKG [4H1454-AA]
Exercise: Of a and b , whose reported interaction score is the larger number? # answer = label of selected item
Key: b
